- experimental.protocol: Solubility estimation at RT by visual observation in solvent systems
- Format: physicochemical
- test.conditions: organic solvent or mixture, thermodynamic from solid; estimated at RT; Acetone, ACN, Toluene, EA, n-Heptane, Water, Anisole, DCM, THF
readout.type: solubility

                              record_smiles  readout_type  assay_result
0  CNC(=O)c1ccc(N2CCN(Cc3cnc4cc(C5CC5)c(=O)[nH]c4c3)CC2)cn1    solubility  < 1000 µg/mL

====

- experimental.protocol: Solubility in bio-relevant media, water and pH buffers (HPLC of filtrate, XRPD of filter cake)
- Type: physicochemical
- test.conditions: water, 37 °C, thermodynamic from solid
readout.type: solubility

>>> df
                                   compound  assay_result
0  CNC(=O)c1ccc(N2CCN(Cc3cnc4cc(C5CC5)c(=O)[nH]c4c3)CC2)cn1 [Freebase Form II]     ~10 µg/mL

====

- experimental.protocol: Solubility in bio-relevant media, water and pH buffers (HPLC of filtrate, XRPD of filter cake)
- Format: physicochemical
- test.conditions: FaSSIF, pH 6.5, fassif, thermodynamic from solid, FaSSIF, initial pH 6.50, 4 h; read-out: Solubility (mg/mL) 4 h
readout.type: solubility at 4 h (mg/mL)

In [3]: df
Out[3]:
                                   molecule       readout_type  assay_result
0  CNC(=O)c1ccc(N2CCN(Cc3cnc4cc(C5CC5)c(=O)[nH]c4c3)CC2)cn1 [Freebase Form II]  solubility at 4 h         0.021

====

- experimental.protocol: Solubility in bio-relevant media, water and pH buffers (HPLC of filtrate, XRPD of filter cake)
- Type: physicochemical
- test.conditions: FeSSIF, 37 °C, pH 4.98, fessif, thermodynamic from solid
readout.type: solubility

In [3]: df
Out[3]:
                                   compound  readout_type  assay_result
0  CNC(=O)c1ccc(N2CCN(Cc3cnc4cc(C5CC5)c(=O)[nH]c4c3)CC2)cn1 [Freebase Form II]    solubility    ~100 µg/mL

====

- experimental.protocol: Solubility in bio-relevant media, water and pH buffers (HPLC of filtrate, XRPD of filter cake)
- Assay type: physicochemical
- test.conditions: FeSSIF, 37 °C, pH 4.89, fessif, thermodynamic from solid, FeSSIF, initial pH 4.89, 37° C., 800 rpm, 24 h; read-out: Solubility (mg/mL) 24 h
readout.type: solubility at 24 h (mg/mL)

>>> df
                                   molecule        readout_type  assay_result
0  CNC(=O)c1ccc(N2CCN(Cc3cnc4cc(C5CC5)c(=O)[nH]c4c3)CC2)cn1 [Freebase Form II]  solubility at 24 h          0.12

====

- experimental.protocol: Solubility in bio-relevant media, water and pH buffers (HPLC of filtrate, XRPD of filter cake)
- Format: physicochemical
- test.conditions: pH 5.0 buffer, 37 °C, pH 5, aqueous buffer, thermodynamic from solid, pH 5.0 buffer, initial pH 4.94, 37° C., 800 rpm, 0.5 h; read-out: Solubility (mg/mL) 0.5 h
readout.type: solubility at 0.5 h

>>> print(df.to_string())
                                   compound         readout_type  assay_result
0  CNC(=O)c1ccc(N2CCN(Cc3cnc4cc(C5CC5)c(=O)[nH]c4c3)CC2)cn1 [Freebase Form II]  solubility at 0.5 h   0.045 mg/mL

====

- experimental.protocol: Solubility in bio-relevant media, water and pH buffers (HPLC of filtrate, XRPD of filter cake)
- Format: physicochemical
- test.conditions: pH 6.5 buffer, 37 °C, pH 6.5, aqueous buffer, thermodynamic from solid, pH 6.5 buffer, initial pH 6.43, 37° C., 800 rpm, 2 h; read-out: Solubility (mg/mL) 2 h
readout.type: solubility at 2 h (mg/mL)

>>> print(df.to_string())
                                   compound  assay_result
0  CNC(=O)c1ccc(N2CCN(Cc3cnc4cc(C5CC5)c(=O)[nH]c4c3)CC2)cn1 [Freebase Form II]         0.008

====

- experimental.protocol: Solubility in bio-relevant media, water and pH buffers (HPLC of filtrate, XRPD of filter cake)
- Type: physicochemical
- test.conditions: water, 37 °C, pH 4.18, water, thermodynamic from solid, Water, initial pH 4.18, 37° C., 800 rpm, 24 h; read-out: Solubility (mg/mL) 24 h
readout.type: solubility at 24 h

In [3]: df
Out[3]:
                                   compound        readout_type  assay_result
0  CNC(=O)c1ccc(N2CCN(Cc3cnc4cc(C5CC5)c(=O)[nH]c4c3)CC2)cn1 [Freebase Form II]  solubility at 24 h    0.01 mg/mL

====

- experimental.protocol: Solubility in bio-relevant media, water and pH buffers (HPLC of filtrate, XRPD of filter cake)
- Assay type: physicochemical
- test.conditions: FeSSIF, pH 4.98, fessif, thermodynamic from solid, FeSSIF, initial pH 4.98, 2 h; read-out: Solubility (mg/mL) 2 h
readout.type: solubility at 2 h

In [3]: df
Out[3]:
                                   compound  assay_result
0  CNC(=O)c1ccc(N2CCN(Cc3cnc4cc(C5CC5)c(=O)[nH]c4c3)CC2)cn1 [Freebase Form II]    0.09 mg/mL

====

- experimental.protocol: Solubility in bio-relevant media, water and pH buffers (HPLC of filtrate, XRPD of filter cake)
- Format: physicochemical
- test.conditions: SGF, 37 °C, pH 1.27, simulated gastric fluid, thermodynamic from solid, SGF, initial pH 1.27, 37° C., 800 rpm, 2 h; read-out: Solubility (mg/mL) 2 h
- Protocol: About 15 mg of freebase Form II was weighed into sample vials, and then 3 mL of each media was added to make suspensions, respectively. […] Duplicated samples were prepared for each media. HPLC analysis was performed with an Agilent HPLC 1260 series instrument.
readout.type: solubility at 2 h

>>> df
                                   compound  assay_result
0  CNC(=O)c1ccc(N2CCN(Cc3cnc4cc(C5CC5)c(=O)[nH]c4c3)CC2)cn1 [Freebase Form II]     > 5 mg/mL

====

- experimental.protocol: Solubility in bio-relevant media, water and pH buffers (HPLC of filtrate, XRPD of filter cake)
- Format: physicochemical
- test.conditions: FeSSIF, 37 °C, pH 4.89, fessif, thermodynamic from solid, FeSSIF, initial pH 4.89, 37° C., 800 rpm, 0.5 h; read-out: Solubility (mg/mL) 0.5 h
readout.type: solubility at 0.5 h (mg/mL)

>>> df
                                   compound         readout_type  readout_unit  assay_result
0  CNC(=O)c1ccc(N2CCN(Cc3cnc4cc(C5CC5)c(=O)[nH]c4c3)CC2)cn1 [Freebase Form II]  solubility at 0.5 h         mg/mL         0.087

====

- experimental.protocol: Solubility in bio-relevant media, water and pH buffers (HPLC of filtrate, XRPD of filter cake)
- Assay type: physicochemical
- test.conditions: water, 37 °C, pH 4.18, water, thermodynamic from solid, Water, initial pH 4.18, 37° C., 800 rpm, 0.5 h; read-out: Solubility (mg/mL) 0.5 h
- Procedure: About 15 mg of freebase Form II was weighed into sample vials, and then 3 mL of each media was added to make suspensions, respectively. […] Duplicated samples were prepared for each media. HPLC analysis was performed with an Agilent HPLC 1260 series instrument.
readout.type: solubility at 0.5 h (mg/mL)

In [3]: df
Out[3]:
                                   compound  assay_result
0  CNC(=O)c1ccc(N2CCN(Cc3cnc4cc(C5CC5)c(=O)[nH]c4c3)CC2)cn1 [Freebase Form II]         0.007

====

- experimental.protocol: Solubility in bio-relevant media, water and pH buffers (HPLC of filtrate, XRPD of filter cake)
- Format: physicochemical
- test.conditions: pH 6.5 buffer, 37 °C, pH 6.5, aqueous buffer, thermodynamic from solid, pH 6.5 buffer, initial pH 6.43, 37° C., 800 rpm, 24 h; read-out: Solubility (mg/mL) 24 h
readout.type: solubility at 24 h (mg/mL)

In [3]: df
Out[3]:
                                   molecule  assay_result
0  CNC(=O)c1ccc(N2CCN(Cc3cnc4cc(C5CC5)c(=O)[nH]c4c3)CC2)cn1 [Freebase Form II]          0.01
